Cited source: ChEMBL document CHEMBL1806461

- assay target: Protein smoothened (Homo sapiens, UniProt Q99835)
- Sequence (Q99835 whole entry): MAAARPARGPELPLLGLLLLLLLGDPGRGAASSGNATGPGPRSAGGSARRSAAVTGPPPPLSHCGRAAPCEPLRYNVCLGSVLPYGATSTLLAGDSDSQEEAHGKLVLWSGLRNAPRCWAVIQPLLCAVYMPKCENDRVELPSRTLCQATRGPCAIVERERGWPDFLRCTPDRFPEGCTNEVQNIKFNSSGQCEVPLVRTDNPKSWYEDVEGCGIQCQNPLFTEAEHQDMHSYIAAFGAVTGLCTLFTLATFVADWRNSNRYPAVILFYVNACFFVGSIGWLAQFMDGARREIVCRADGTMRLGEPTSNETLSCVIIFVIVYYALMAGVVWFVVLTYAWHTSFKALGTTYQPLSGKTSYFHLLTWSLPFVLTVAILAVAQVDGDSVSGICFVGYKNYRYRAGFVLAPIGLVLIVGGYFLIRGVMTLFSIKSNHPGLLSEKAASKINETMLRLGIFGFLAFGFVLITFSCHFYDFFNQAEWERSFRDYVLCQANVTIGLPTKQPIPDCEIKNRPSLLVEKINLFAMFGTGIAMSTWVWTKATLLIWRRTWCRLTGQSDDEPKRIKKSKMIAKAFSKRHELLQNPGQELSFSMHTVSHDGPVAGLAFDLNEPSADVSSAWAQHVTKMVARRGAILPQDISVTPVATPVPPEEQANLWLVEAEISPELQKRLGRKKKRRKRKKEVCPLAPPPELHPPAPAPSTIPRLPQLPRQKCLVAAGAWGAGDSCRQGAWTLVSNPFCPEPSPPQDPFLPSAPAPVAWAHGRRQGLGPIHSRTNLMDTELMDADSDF
- assay: Displacement of [125I]-PA cyclopamine from smoothened expressed in african green monkey COS-1 cells after 10 mins by autoradiography
pIC50: −log10 of the molar value.
Quick rule: pIC50 of at least 6 means true (1), below that means false (0).

Some entries whose results are on file:
Request: Decide: pIC50 of O=C(Nc1cccc(Cl)c1Cl)N1CCN2C(=O)N([C@H]3C[C@@H]3c3ccccc3)C(=O)C2C1 (mixture of isomers) >= 6?
Result: true (1)

Request: Decide: pIC50 of O=C(NCc1ccco1)N1CCN2C(=O)N([C@H]3C[C@@H]3c3ccccc3)C(=O)C2C1 (mixture of isomers) >= 6?
Result: false (0)

Request: Decide: pIC50 of O=C(Nc1ccc(F)c(Cl)c1Cl)N1CCN2C(=O)N([C@H]3C[C@@H]3c3ccccc3)C(=O)C2C1 (mixture of isomers) >= 6?
Result: true (1)

Request: Decide: pIC50 of N#Cc1ccccc1NC(=O)N1CCN2C(=O)N([C@H]3C[C@@H]3c3ccccc3)C(=O)C2C1 (mixture of isomers) >= 6?
Result: false (0)

Request: Decide: pIC50 of O=C(Nc1c(Cl)cc(C(F)(F)F)cc1Cl)N1CCN2C(=O)N([C@H]3C[C@@H]3c3ccccc3)C(=O)C2C1 (mixture of isomers) >= 6?
Result: true (1)

Others:
Request: Decide: pIC50 of CCCCN1C(=O)C2CN(C(=O)Nc3ccccc3-c3ccccc3)CCN2C1=O (racemic) >= 6?
Result: false (0)

Request: Decide: pIC50 of Cn1cc(-c2ncccc2NC(=O)N2CCN3C(=O)N([C@H]4C[C@@H]4c4ccccc4)C(=O)C3C2)cn1 (mixture of isomers) >= 6?
Result: true (1)

Request: Decide: pIC50 of O=C(Nc1ccccc1-c1cnco1)N1CCN2C(=O)N([C@H]3C[C@@H]3c3ccccc3)C(=O)C2C1 (mixture of isomers) >= 6?
Result: false (0)
